The origin of these recorded values is patent US5942511A.

# procedureDetails: Acute toxicity test, single oral administration
# Type: in vivo
# experimentalContext: in vivo, mouse, Litchfield-Wilcoxon method, 95% confidence interval 3.26-4.78 g/kg (Example 4)
observedProperty: LD50 at 336 h (mg/kg)

INSERT INTO measurements (compound, outputunit, readoutnumber) VALUES
  ('C=CCSc1ccc(OC)nn1 [Example 4, 3-methoxy-6-allylthiopyridazine]', 'mg/kg', 3950);
